Item-by-item account of IC50
target: recombinant HIV-2 RT (Human immunodeficiency virus type 2 subtype A); assay: Anti-reverse transcriptase assay, HIV-2 RT
Sequence (P04584 613-1171 limits assumed): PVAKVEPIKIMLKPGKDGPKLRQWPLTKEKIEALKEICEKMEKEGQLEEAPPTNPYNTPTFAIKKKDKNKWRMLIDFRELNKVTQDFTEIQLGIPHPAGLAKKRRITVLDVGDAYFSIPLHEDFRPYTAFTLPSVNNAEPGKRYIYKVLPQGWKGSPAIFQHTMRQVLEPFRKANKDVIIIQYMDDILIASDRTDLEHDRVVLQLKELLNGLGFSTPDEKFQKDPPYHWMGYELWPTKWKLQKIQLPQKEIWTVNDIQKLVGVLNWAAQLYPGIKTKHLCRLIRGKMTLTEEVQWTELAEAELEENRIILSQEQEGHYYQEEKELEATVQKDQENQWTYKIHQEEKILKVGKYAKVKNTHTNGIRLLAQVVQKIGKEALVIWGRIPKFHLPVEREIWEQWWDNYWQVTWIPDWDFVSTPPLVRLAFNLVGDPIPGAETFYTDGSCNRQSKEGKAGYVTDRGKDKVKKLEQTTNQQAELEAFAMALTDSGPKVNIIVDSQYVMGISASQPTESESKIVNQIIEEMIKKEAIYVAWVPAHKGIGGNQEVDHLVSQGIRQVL
Sequence (P04584 613-1051 partner limits assumed): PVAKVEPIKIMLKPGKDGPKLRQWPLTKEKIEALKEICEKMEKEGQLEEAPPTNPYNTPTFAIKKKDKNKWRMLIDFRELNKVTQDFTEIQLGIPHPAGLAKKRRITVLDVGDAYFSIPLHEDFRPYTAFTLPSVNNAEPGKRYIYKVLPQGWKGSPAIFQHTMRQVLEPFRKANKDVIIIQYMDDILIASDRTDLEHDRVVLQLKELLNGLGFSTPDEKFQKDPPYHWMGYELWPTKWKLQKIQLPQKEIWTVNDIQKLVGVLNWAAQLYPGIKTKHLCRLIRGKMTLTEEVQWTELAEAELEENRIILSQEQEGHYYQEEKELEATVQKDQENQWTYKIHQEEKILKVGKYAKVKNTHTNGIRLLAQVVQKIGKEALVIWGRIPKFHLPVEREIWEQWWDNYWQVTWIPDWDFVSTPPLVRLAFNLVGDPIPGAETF

Cc1cc(C)nc(N2C(=O)CS[C@@H]2C23CC4CC(CC(C4)C2)C3)c1 (single isomer, unassigned; (+)) [7 (R enantiomer), reference compound]    > 600 µM
O=C1CSC(c2c(F)cccc2F)N1CC12CC3CC(CC(C3)C1)C2 (centres unmarked)    > 600 µM
O=C1CSC(c2c(F)cccc2F)N1CCC12CC3CC(CC(C3)C1)C2 (centres unmarked)    ≥ 600 µM
O=C1CSC(c2c(Cl)cccc2Cl)N1CC12CC3CC(CC(C3)C1)C2 (centres unmarked)    ≥ 600 µM

We now examine a further molecule.
Returns the measured IC50 for the input molecule. Input: O=C1CSC(c2c(Cl)cccc2Cl)N1CCC12CC3CC(CC(C3)C1)C2 (centres unmarked)
> 600 µM

Data origin: paper PMC7127420
